Hello, the source for this data is patent US20130287781A1, in case you need it.

# Target or test system: T1, GST-human NOGO-A56 (human)
# T1 construct: Expressed in E. coli BL21 from pGEX-6P1 and purified on glutathione-sepharose; the GST tag is part of the protein in the assays; also called GST-Nogo-A 5+6; GST Nogo-A 5 + 6
# T1 sequence (chain, as listed by the source limits assumed): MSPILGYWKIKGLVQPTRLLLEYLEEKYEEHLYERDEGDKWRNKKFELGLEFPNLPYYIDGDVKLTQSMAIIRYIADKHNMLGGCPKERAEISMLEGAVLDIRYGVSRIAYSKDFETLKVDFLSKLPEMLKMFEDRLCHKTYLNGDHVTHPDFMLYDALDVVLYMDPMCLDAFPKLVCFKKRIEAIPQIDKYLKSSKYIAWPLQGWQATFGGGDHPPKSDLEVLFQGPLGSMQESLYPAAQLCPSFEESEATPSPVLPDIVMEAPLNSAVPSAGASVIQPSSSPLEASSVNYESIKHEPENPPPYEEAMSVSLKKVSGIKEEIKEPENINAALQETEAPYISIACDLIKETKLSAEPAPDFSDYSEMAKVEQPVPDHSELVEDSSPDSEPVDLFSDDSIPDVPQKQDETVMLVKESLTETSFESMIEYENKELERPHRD
# Test details: direct ELISA, GST-human NOGO-A56 coated at 1.0 mcg/ml, purified antibody, OD490
# EC50 (read off the curve) listing for each entry below

>>> data_value("H6L13 (H6FL L13FL) (antibody, human IgG1, kappa, V domains shown, Human IgG1 (L235A, G237A, EU Index) / kappa; also called H6L13 with VH CDR3 GQGY) VH: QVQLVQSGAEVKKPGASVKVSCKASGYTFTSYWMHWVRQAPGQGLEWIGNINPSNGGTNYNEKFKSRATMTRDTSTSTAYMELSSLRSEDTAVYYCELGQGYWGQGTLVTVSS VL: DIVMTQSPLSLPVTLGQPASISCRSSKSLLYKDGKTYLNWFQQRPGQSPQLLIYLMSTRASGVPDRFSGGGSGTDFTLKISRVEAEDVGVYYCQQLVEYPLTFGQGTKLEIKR")
"~0.1 µg/mL"

Now for another entry.
Query block: Query: EC50 (read off the curve); subject: HcLc (chimera of 2A10: murine 2A10 VH and VL with human IgG constant regions) (antibody, V domains shown, also called chimeric antibody; chimeric form of the parental antibody) VH: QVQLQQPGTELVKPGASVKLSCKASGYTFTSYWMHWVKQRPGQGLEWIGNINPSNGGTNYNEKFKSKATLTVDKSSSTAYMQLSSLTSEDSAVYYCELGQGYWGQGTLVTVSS VL: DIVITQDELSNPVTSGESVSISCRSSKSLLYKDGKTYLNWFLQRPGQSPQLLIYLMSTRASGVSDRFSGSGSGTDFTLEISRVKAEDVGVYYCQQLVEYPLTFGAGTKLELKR
Result block: ~0.09 µg/mL
